Reference for the values: PubChem BioAssay (NCI)

- Tested on: CCRF-CEM leukemia
- assay.overview: NCI tumour cell line growth inhibition, 48 h
Where a SMILES comes first, the peptide text is derived from it. Bridges are numbered along the chain shown (N, C = ends).
measured.quantity: TGI

// solved cases for TGI follow
>>> experimental_value("COc1ccc(C2C3=C(COC3=O)Oc3cc4c(cc32)OCO4)cc1OC (centres undefined)")
"> 32.4 µM"
>>> experimental_value("C[C@@H]1C[C@@H]2OC(=O)[C@]3(C)[C@H]2[C@@H](OC3(C)O)[C@]2(C)C(=O)C=C[C@@H]12 (some centres undefined)")
"31.8 µM"
>>> experimental_value("O=C1C(=O)N(c2cc(Cl)ccc2Cl)C(=O)C(=O)C1c1nc2ccccc2s1")
"> 100 µM"
>>> experimental_value("CCOP(=O)(OCC)C(c1ccccc1)N(C(=O)NC(F)(F)F)c1ccc(C)cc1 (centres undefined)")
"> 100 µM"
>>> experimental_value("COC(=O)C1CCC(=O)NCCCCC(NC(=O)C(N)CC(=O)O)C(=O)N1 (stereo not drawn) (H-Asp-Lys-Glu-OMe; lactam 2-3; configuration not given here)")
"> 100 µM"
>>> experimental_value("C[C@]12CC[C@H](OC(=O)Nc3ccccc3)CC1=CC[C@@H]1C2CC[C@]2(C)/C(=N/OC(=O)Nc3ccccc3)CCC12 (some centres undefined)")
"> 100 µM"
>>> experimental_value("O=C(NC1=C(Cl)C(=O)c2ccccc2C1=O)C(=O)c1c(O)c2ccccc2oc1=O")
"> 30.7 µM"
>>> experimental_value("c1ccc(C2N=C(c3ccccn3)C(c3ccccn3)=NC2c2ccccc2)cc1 (centres undefined)")
"> 100 µM"
>>> experimental_value("Cc1cc2ccccc2n2c1nc1ccc(O)cc12")
"> 10 µM"
>>> experimental_value("CC(NC1CCCC[C@@H]1O)c1ccccc1 (some centres undefined)")
"> 100 µM"

Report TGI for `O=C1C=C(NCCc2ccccc2)c2ccccc2C1=O` tested on CCRF-CEM leukemia.
67.9 µM

Report TGI for `COc1ccc(-c2c(/C=N/OCC(=O)O)c3sc4ccccc4n3c2/C=N/OCC(=O)O)cc1` tested on CCRF-CEM leukemia.
> 50 µM

Report TGI for `CCOC(=O)c1c(SC(=O)c2ccc(Cl)cc2)n(-c2ccccc2)c(=S)n(-c2ccccc2)c1=O` tested on CCRF-CEM leukemia.
> 100 µM

Report TGI for `Oc1ccc(Nc2nc(Cl)c3[nH]cnc3n2)cc1` tested on CCRF-CEM leukemia.
> 100 µM
